experiment description: yeast display, Sf9 membrane polyspecificity reagent, FACS + sequencing; frameworks hold sequencing errors
measurement label: polyreactivity (PSR sort gate)

QVQRVESGGGLVQAGASLRLSCSASGRTFSRYAMGWYRQAPGKERELVAAIRGNSGNTYYADSVKGRFTISRDNAKNTVYLQMNSLKPEDTAVYYCAKPFNIWGQGTQVTVSS :: high polyreactivity
QVQLVESGGGLVQAGGSLRLSCAASGFTFRVYAMGWYRQAPGKERDLVAPISLRGDRTYYADSVKGRFTISRDYAKNTEYLQMNRLKPEDTAVYYCHAYASYQISQDDYDYWGQGTQVTVSS :: high polyreactivity
QVQLVESGGGIVQAGGSLRLSCAASGRIFDGYAMGWYRQAPGKESQLVAAISATGGSTYYADSVKGRFTISRDNAKNTVYLQMNSLKPEDTAVYYCATDYVRGLYRYKLSRYEYWGQGTQETVSS :: low polyreactivity
QVQIVESGGGLVQAGCILRLSCAASGSTFYVNAMGWYRQAPGKEWELVAVISTGGSTYYADSVKGRFTISRDNAKNTVYLQMNSLKPEDTAVYYCAKRDLPDCSGTPNVIPFDYWGQGTQVTVSS :: low polyreactivity

For each of the sequences below, state polyreactivity (PSR sort gate).
1. QVQLVESGGGLVQAGGSLRLSCAASGNIFSVYAMGWYRQAPGKERELVAAISSSGGRTYYADSVKGRFTISRDNAKNTVYLQMNSLKPEDTAVYYCNTAGYDYYSTQAYDYWGQGTQVTVSS
2. QVQLVESGGGLVQAGGSLRLSCAASGRIFPYYAMGWYRQAPGKEREFVAAITKRGGSTSYADSVKGRFTISRDNAKNTVYLQMNSLKPEDTAVYYCAARRGSGIVTYYGGDYWGQGTQVTVSS
3. QVQLVESGGGLVQAGGSLRLSCAASGYTFIDYAMGWYRQAPGKETELVAAITRGGRTNYADSVKGRFTISRDNAKNTVYLQMNSLKPEDTAVYYCAAALRRRRADFDYWGQGTQVTVSS
4. QVQLVESGGGLVQAGGSHRLSFAASGGIFRGYALGWNRQAPGKERELGATIRSSGRTNYADSVKGRFTIARDNAKNTVYLQMNCLKPDDTAVYYCNKRRWWQYDRWSDWVLGGDDYWGQGTQLTVSS
5. QVQLVESGGGLVQAGGSPRLSCAASGRIFGAYAMGWYRQAPGQERELVAGNRSVGSTNYADSVKGRFTISRDNAKNTVYFQMNSLKPEDTAVYYCAARLWHLSYAGQGGDYWGQGTQVTVSS
6. QVQLVESGGGLVQAGCSLRLSCAASGSIFFSYAMGWYRQAPGKEREFVAAINSDDASTYADSVKGRFTISRDNAKNTVYLQKNSLNPEDTAVYYCAASFLWSWYDYWGQGTHVTVSS
7. QVQLEESGGGLVQAGGSLRLSCAASGRTFNKNAMGWYRQAPGKERELVAAISYSGGRTYYADSVKGRFTISRDNAKNTVYLQMNSLKPEDTAVYYCAAWGSSYSFDYWGQGTQVTVSS

Solution:
1: high polyreactivity; 2: low polyreactivity; 3: high polyreactivity; 4: low polyreactivity; 5: low polyreactivity; 6: low polyreactivity; 7: high polyreactivity

====

experiment description: yeast display, Sf9 membrane polyspecificity reagent, FACS + sequencing; frameworks hold sequencing errors
measurement label: polyreactivity (PSR sort gate)

QVQLVESRGGLVQAGGSLGLSCAASGSTFGYYAMGWYRQAPGKERELVAGISTGGSTYYAYSVKGRFTISRDNAKNTVYFQINSLKPDDTAVYYCAATRYNRWPIKFDYWGQGTQVTVSS :: high polyreactivity
QVQLVESGGGLGQAGGSLRLTCAASGSIFRSYAMGWYRQAPGKESEFVATISSSTGSTYYADSVKGRFSISRDNAKNTVYLPMNSLKPEFTAVYYCAAVQPVKSSSGYHFWYYWGQGTQVTVSS :: high polyreactivity
QVQLVESGGGLVQAGGSLRLSCAASGFTIAKYAMGWYRQAPGKERELVAAISSSGGRTYYADSVKGRFTISRDIAKNTVYLQMNSLNPEDTAVYYCAADFSGPFDYWGQGTQVSVSS :: high polyreactivity

These data points were gathered from the nanobody polyreactivity screen of Harvey et al. (2022).
